B1: ATGL (PNPLA2, patatin-like phospholipase domain-containing protein 2), human, full length / CGI-58 (ABHD5, 1-acylglycerol-3-phosphate O-acyltransferase ABHD5), human (parent)
chain 1: MFPREKTWNISFAGCGFLGVYYVGVASCLREHAPFLVANATHIYGASAGALTATALVTGVCLGEAGAKFIEVSKEARKRFLGPLHPSFNLVKIIRSFLLKVLPADSHEHASGRLGISLTRVSDGENVIISHFNSKDELIQANVCSGFIPVYCGLIPPSLQGVRYVDGGISDNLPLYELKNTITVSPFSGESDICPQDSSTNIHELRVTNTSIQFNLRNLYRLSKALFPPEPLVLREMCKQGYRDGLRFLQRNGLLNRPNPLLALPPARPHGPEDKDQAVESAQAEDYSQLPGEDHILEHLPARLNEALLEACVEPTDLLTTLSNMLPVRLATAMMVPYTLPLESALSFTIRLLEWLPDVPEDIRWMKEQTGSICQYLVMRAKRKLGRHLPSRLPEQVELRRVQSLPSVPLSCAAYREALPGWMRNNLSLGDALAKWEECQRQLLLGLFCTNVAFPPEALRMRAPADPAPAPADPASPQHQLAGPAPLLSTPAPEARPVIGALGL
chain 2: MAAEEEEVDSADTGERSGWLTGWLPTWCPTSISHLKEAEEKMLKCVPCTYKKEPVRISNGNKIWTLKFSHNISNKTPLVLLHGFGGGLGLWALNFGDLCTNRPVYAFDLLGFGRSSRPRFDSDAEEVENQFVESIEEWRCALGLDKMILLGHNLGGFLAAAYSLKYPSRVNHLILVEPWGFPERPDLADQDRPIPVWIRALGAALTPFNPLAGLRIAGPFGLSLVQRLRPDFKRKYSSMFEDDTVTEYIYHCNVQTPSGETAFKNMTIPYGWAKRPMLQRIGKMHPDIPVSVIFGARSCIDGNSGTSIQSLRPHSYVKTIAILGAGHYVYADQPEEFNQKVKEICDTVD

Variants of: B1
Assay: LUMIER: Protein A-ATGL variant and firefly luciferase-partner co-expressed in HEK293T, lysates immunoprecipitated on IgG-coated plates, co-precipitated partner measured as luciferase luminescence
Conditions: with CGI-58 (ABHD5, 1-acylglycerol-3-phosphate O-acyltransferase ABHD5), transient co-transfection, IgG-coated LUMITRAC plates, 2 h at 4 °C, three PBS washes, Bright-Glo luciferase reagent, triplicates per assay, two …, parent: 0.32, not graded, scale: log2 fold change of co-immunoprecipitated luminescence relative to wild-type ATGL within each experiment
// label = Fulfilled if screen value is not less than -0.2, otherwise Not fulfilled

Request: Is the recorded value of screen value equal to or greater than -0.2 for this variant? chain 1 G66L
Response: Fulfilled

Request: Say whether chain 1 R163K shows screen value of -0.2 or more.
Response: Fulfilled

Request: Quick check: does chain 1 Q140K have screen value greater than or equal to -0.2?
Response: Not fulfilled

Request: Quick check: does chain 1 G16K have screen value greater than or equal to -0.2?
Response: Fulfilled
